# measuredTarget: human epidermal growth factor receptor 2 (HER2), membrane-bound on cells (human, UniProt P04626 23-1255)
# methodDescription: cell-based or functional assay
For each of the binders below, state its % cells killed, AU565, anti-kappa-ETA'-conjugated.
Field format: number, assumed %, no unit text.

Using known records, supply % cells killed, AU565, anti-kappa-ETA'-conjugated for HuMab 059 (antibody, V domains shown, also called PC1014-059) VH: QVQLVQSGAEVKKPGASVRVPCKASGYTFTRYGISWVRQAPGQGLEWMGWISAYNGKTYYAQKLQGRVTMTTDTSTSTAYMELRSLRSDDTAVYYCARSPLLWFEELYFDYWGQGTLVTVSS VL: EIVLTQSPGTLSLSPGERATLSCRASQSVSSTYLAWYQQKPGQAPRLLIYGASSRATGIPDRFSGSGSGTDFTLTISRLEPEDFAVYYCQQYGTSLFTFGPGTKVDIK
67

Using known records, supply % cells killed, AU565, anti-kappa-ETA'-conjugated for HuMab 127 (antibody, V domains shown) VH: EVQLVQSGAEVKKPGESLTISCKGSGYSFSIYWIGWVRQMPGKGLEWMGIIFPGDSDIRYSPSFQGQVTISADKSISTAYLQWSSLKASDTAMYYCARQPGDWSPRHWYFDLWGRGTLVTVSS VL: VIWMTQSPSLLSASTGDRVTISCRMSQGISSYLAWYQQKPGKAPELLIYAASTLQSGVPSRFSGSGSGTDFTLTISYLQSEDFATYYCQQYYSFPLTFGGGTKVEIK
69

Using known records, supply % cells killed, AU565, anti-kappa-ETA'-conjugated for HuMab 084 (antibody, V domains shown, also called TH1014-084; PC1014-084) VH: QVQLVQSGAEVKKPGSSVKVSCKASGGTFRTYAINWVRQAPGQGLEWMGRINTVLGIVNHAQKFQGRVTITADKSTNTAYMELNSLRSEDTAVYYCAREKGVDYYYGIEVWGQGTTVTVSS VL: DIQMTQSPSSVSASVGDRVTITCRASQGISSWLAWYQHKPGKAPKLLIYVASTLQSGVPSRFSGSGSGTDFTLTISSLQPEDFATYYCQQANSFPLTFGGGTKVEIK
58.1

Using known records, supply % cells killed, AU565, anti-kappa-ETA'-conjugated for HuMab 025 (antibody, V domains shown, also called TH1014-025; PC1014-025) VH: QVQLQQWGAGLLKPSETLSLTCAVYGGSFSDYYWNWIRQPPGKGLEWIGEIHHSGSTNYNPSLKSRVTISVDTSKNQFSLKLSSVTAADTAVYYCARGYYDSGVYYFDYWAQGTLVTVSS VL: DIQMTQSPSSLSASVGDRVTITCRASQGISRWLAWYQQKPEKAPKSLIYAASSLRSGVPSRFSGSGSGTDFTLTISSLQPEDFATYYCQQYNSYPITFGQGTRLEIK
60

Using known records, supply % cells killed, AU565, anti-kappa-ETA'-conjugated for HuMab 159 (antibody, V domains shown, also called TH1014-159; PC1014-159) VH: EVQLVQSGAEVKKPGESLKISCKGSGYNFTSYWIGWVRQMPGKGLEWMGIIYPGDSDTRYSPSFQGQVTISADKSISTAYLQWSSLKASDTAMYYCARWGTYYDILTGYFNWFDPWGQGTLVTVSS VL: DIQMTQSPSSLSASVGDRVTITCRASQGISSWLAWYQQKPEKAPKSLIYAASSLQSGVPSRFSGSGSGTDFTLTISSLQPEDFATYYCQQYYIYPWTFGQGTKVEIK
70.3

Using known records, supply % cells killed, AU565, anti-kappa-ETA'-conjugated for HuMab 153 (antibody, V domains shown) VH: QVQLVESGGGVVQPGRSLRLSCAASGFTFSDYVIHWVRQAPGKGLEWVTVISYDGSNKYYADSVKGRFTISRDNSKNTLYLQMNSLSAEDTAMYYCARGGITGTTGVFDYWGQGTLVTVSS VL: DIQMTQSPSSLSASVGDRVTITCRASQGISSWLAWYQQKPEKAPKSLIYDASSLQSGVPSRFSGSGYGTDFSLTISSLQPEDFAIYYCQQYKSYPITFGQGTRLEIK
60.3

Using known records, supply % cells killed, AU565, anti-kappa-ETA'-conjugated for HuMab 098 (antibody, V domains shown, also called TH1014-098; PC1014-098) VH: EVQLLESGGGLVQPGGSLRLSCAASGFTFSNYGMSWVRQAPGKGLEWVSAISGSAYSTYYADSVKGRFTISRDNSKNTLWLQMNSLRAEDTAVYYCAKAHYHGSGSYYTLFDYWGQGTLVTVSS VL: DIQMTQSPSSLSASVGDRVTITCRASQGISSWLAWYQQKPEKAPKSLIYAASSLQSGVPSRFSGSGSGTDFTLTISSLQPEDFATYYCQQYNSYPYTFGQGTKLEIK
58.7

Using known records, supply % cells killed, AU565, anti-kappa-ETA'-conjugated for HuMab 129 (antibody, V domains shown) VH: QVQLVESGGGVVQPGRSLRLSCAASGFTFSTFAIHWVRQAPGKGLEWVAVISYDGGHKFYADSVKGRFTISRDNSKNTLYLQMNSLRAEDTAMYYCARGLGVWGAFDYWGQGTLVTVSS VL: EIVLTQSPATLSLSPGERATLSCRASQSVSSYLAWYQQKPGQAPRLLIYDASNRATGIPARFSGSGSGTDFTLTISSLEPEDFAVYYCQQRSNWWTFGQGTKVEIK
60.8

Using known records, supply % cells killed, AU565, anti-kappa-ETA'-conjugated for HuMab 091 (antibody, V domains shown, also called TH1014-091; PC1014-091) VH: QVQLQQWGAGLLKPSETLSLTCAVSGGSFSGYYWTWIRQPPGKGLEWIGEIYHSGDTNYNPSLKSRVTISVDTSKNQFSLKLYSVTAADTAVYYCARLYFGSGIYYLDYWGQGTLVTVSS VL: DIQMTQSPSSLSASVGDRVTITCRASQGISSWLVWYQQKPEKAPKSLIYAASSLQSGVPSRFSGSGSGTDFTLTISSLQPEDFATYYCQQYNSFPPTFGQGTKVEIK
50.6

Using known records, supply % cells killed, AU565, anti-kappa-ETA'-conjugated for HuMab 132 (antibody, V domains shown) VH: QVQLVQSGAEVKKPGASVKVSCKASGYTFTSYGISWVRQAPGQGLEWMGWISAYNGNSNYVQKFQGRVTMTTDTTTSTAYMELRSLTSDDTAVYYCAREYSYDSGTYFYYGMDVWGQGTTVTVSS VL: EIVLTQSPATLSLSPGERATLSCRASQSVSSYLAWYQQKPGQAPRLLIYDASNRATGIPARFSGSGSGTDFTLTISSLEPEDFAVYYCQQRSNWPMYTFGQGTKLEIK
61.6

Using known records, supply % cells killed, AU565, anti-kappa-ETA'-conjugated for HuMab 050 (antibody, V domains shown, also called TH1014-050; PC1014-050) VH: EVQLLESGGGLVQPGGSLRLSCAASGFTFSSYAMNWVRQAPGKGLEWVSAISGRGGTTYYADSVKGRFTISRDNSKNTLYLQMSSLRAEDTAVYYCAKARANWDYFDYWGQGTLVTVSS VL: DIQMTQSPSSVSASVGDRVTITCRASQGISSWLAWYQHKPGKAPKLLIYAASILQSGVPSRFSGSGSGTDFTLTISSLQPEDFATYYCQQANSFPITFGQGTRLEIK
52.4
